cell viability values for the compounds below.
Test system: SEM cells
Assay: cell viability relative to DMSO control; higher = less cytotoxic
Conditions: RPMI 5 mM glucose + 10% dialyzed FBS; 48 h; 0.569 µM
Numbers only; they are read as %.

Please review the entries below; each comes with its answer.
compound="COCCCOc1ccnc(C[S+]([O-])c2nc3ccccc3[nH]2)c1C (configuration not stated)" assayed_system="SEM cells" property_label="cell viability" units=% reported=109
compound=CCOc1cc(/C=C2/C(=O)N(c3ccccc3)N=C2C)cc(Cl)c1OCC(=O)OC assayed_system="SEM cells" property_label="cell viability" units=% reported=81.5
compound=CN1/C=C(\N=C(NC2=CC=C(C=C2)C(=O)N3CCOCC3)/C1=O)/C4=C(C)C(=CC=C4)NC(=O)C5=CC=C(C=C5)C(C)(C)C assayed_system="SEM cells" property_label="cell viability" units=% reported=100
compound=COc1cc(Nc2ncc(F)c(Nc3ccc4c(n3)N(COP(=O)(O)O)C(=O)C(C)(C)O4)n2)cc(OC)c1OC assayed_system="SEM cells" property_label="cell viability" units=% reported=25.1
compound=CC(=O)OCC(=O)[C@@]12OC(C)(C)O[C@@H]1C[C@H]3[C@@H]4C[C@H](F)C/5=C/C(=O)/C=C\[C@]5(C)[C@@]4(F)[C@@H](O)C[C@]23C assayed_system="SEM cells" property_label="cell viability" units=% reported=15.7
compound=O=C(Nc1ccc([N+](=O)[O-])cc1Cl)c1cc(Cl)ccc1O assayed_system="SEM cells" property_label="cell viability" units=% reported=123
compound=O=C([O-])[C@H](CC(=O)N1C[C@H]2CCCC[C@H]2C1)Cc1ccccc1 assayed_system="SEM cells" property_label="cell viability" units=% reported=115
compound="COc1ccc(CC2c3cc(OC)c(OC)cc3CC[N+]2(C)CCC(=O)OCCCCCOC(=O)CC[N+]2(C)CCc3cc(OC)c(OC)cc3C2Cc2ccc(OC)c(OC)c2)cc1OC (configuration not stated)" assayed_system="SEM cells" property_label="cell viability" units=% reported=104

Q: Reported cell viability for CCCC1=N[N](C)C2=C1\N=C(/NC2=O)C3=CC(=CC=C3OCC)[S+]([O-])(=O)N4CCN(C)CC4 : what is it?
Result: 89.9

Q: Same thing, different compound: CNC(=O)c1ccc(N2C(=S)N(c3ccc(C#N)c(C(F)(F)F)c3)C(=O)C2(C)C)cc1F
Result: 104

Q: Same thing, different compound: COc1cccc(Nc2c(C(N)=O)cnc3c(C)cc([S+](=O)([O-])c4cccc(C(=O)N(C)C)c4)cc23)c1
Result: 158

====

System: P12-Ichikawa
Test: cell viability relative to DMSO control; higher = less cytotoxic
Conditions: RPMI 5 mM glucose + 10% dialyzed FBS; 48 h; 1.71 µM
property label: cell viability
Form entry: enter the amount, then its unit.

Please review the entries below; each comes with its answer.
compound=CC(=O)OCC(=O)[C@@]12OC(C)(C)O[C@@H]1C[C@H]3[C@@H]4C[C@H](F)C/5=C/C(=O)/C=C\[C@]5(C)[C@@]4(F)[C@@H](O)C[C@]23C assayed_system=P12-Ichikawa property_label="cell viability" reported=57.6%
compound=O=C(Nc1ccc([N+](=O)[O-])cc1Cl)c1cc(Cl)ccc1O assayed_system=P12-Ichikawa property_label="cell viability" reported=69%
compound="COc1ccc(CC2c3cc(OC)c(OC)cc3CC[N+]2(C)CCC(=O)OCCCCCOC(=O)CC[N+]2(C)CCc3cc(OC)c(OC)cc3C2Cc2ccc(OC)c(OC)c2)cc1OC (configuration not stated)" assayed_system=P12-Ichikawa property_label="cell viability" reported=83.1%
compound="C=C[C@H]1CN2CCC1C[C@@H]2[C@@H](O)c1ccnc2ccccc12 (some centres not stated)" assayed_system=P12-Ichikawa property_label="cell viability" reported=81.7%
compound=C[C@H](NC(=O)Cc1cc(F)cc(F)c1)C(=O)N[C@@H]1C(=O)N(C)c2ccccc2-c2ccccc21 assayed_system=P12-Ichikawa property_label="cell viability" reported=115%

Q: Look up cell viability with P12-Ichikawa for this compound: Cc1cc(-c2nnc3n2CCCCC3)c(C)n1-c1ccccc1
Result: 126%

Q: Same thing, different compound: CCc1cccc2c3c([nH]c12)C(CC)(CC(=O)O)OCC3 (configuration not stated)
Result: 98.1%

Q: Same thing, different compound: COc1cccc2c(NCc3ccccc3)nc(-n3c(N)nc4ccccc43)nc12
Result: 111%

Q: Same thing, different compound: COCCCOc1ccnc(C[S+]([O-])c2nc3ccccc3[nH]2)c1C (configuration not stated)
Result: 113%

Q: Same thing, different compound: Oc1cc2c(cc1O)C1c3ccc(O)c(O)c3OCC1(O)C2 (configuration not stated)
Result: 100%

Q: Same thing, different compound: OCCNC1CCCc2c1[nH]c1ccc(-c3ccccc3)cc21 (configuration not stated)
Result: 114%

Q: Same thing, different compound: O=[S+]([O-])(/N=C/c1c(O)ccc2ccccc12)c1cccs1
Result: 122%

Q: Same thing, different compound: C[C@H]1[C@H](O)O[C@@H]2O[C@@]3(C)CC[C@H]4[C@H](C)CC[C@@H]1[C@@]24OO3
Result: 61.6%

Q: Same thing, different compound: CC(=O)Oc1cc2c(s1)CCN(C(C(=O)C1CC1)c1ccccc1F)C2.Cl (configuration not stated)
Result: 101%

Q: Same thing, different compound: C/C(=C\c1csc(C)n1)[C@@H]1C[C@@H]2O[C@]2(C)CCC[C@H](C)[C@H](O)[C@@H](C)C(=O)C(C)(C)[C@@H](O)CC(=O)O1
Result: 32.8%

Q: Same thing, different compound: C[C@H]1C[C@H]2[C@@H]3CCC4=CC(=O)C=C[C@]4(C)[C@H]3C(=O)C[C@]2(C)[C@@]1(O)C(=O)CO
Result: 83.7%

Q: Same thing, different compound: CC1(C)Cc2c(sc(NC(=S)NC(=O)c3ccccc3)c2C(=O)O)CO1
Result: 122%

Hey, just so you know, these numbers are from the supplement of paper PMC11451515.
